System: K562 (leukemic cell)
Test: Inhibition of growth of human cancer cells (WST-1, 3 days)
Type: cell-based
Conditions: 72 h, K562, 3 days, 37° C., read-out: IC50 value
value-type: IC50 (µg/mL)
Express your answer in µg/mL, writing the number without its unit.

Below are worked cases with known answers.
• C=Cc1cc(OC)c2c(c1)c(=O)oc1c2cc(OC)c2c(O)ccc(C3OC(C)C(=O)C(C)(O)C3O)c21 (stereo not drawn) [Mer-1020dC] = 0.11
• COc1cc2c(oc(=O)c3cc(C)cc(OC)c32)c2c(C3OC(C)C(=O)C(C)(O)C3O)ccc(O)c12 (stereo not drawn) [Mer-1020dB] = 0.28
• COc1cc2c(oc(=O)c3cc(C)cc(OC)c32)c2c(C3OC(C)C(O)C(C)(O)C3O)ccc(O)c12 (stereo not drawn) [Chrysomycin B, reference compound] = 1.76

q: Sample C=Cc1cc(OC)c2c(c1)c(=O)oc1c2cc(OC)c2c(O)ccc(C3OC(C)C(O)(C(C)=O)C3O)c21 (stereo not drawn) [Mer-1020dD] — what was its IC50?
a: 0.21

q: Find the recorded IC50 belonging to COc1cc2c(oc(=O)c3cc(C)cc(OC)c32)c2cccc(O)c12 [Mer-1020dE] and report it.
a: 8.1

q: Would you mind telling me what IC50 value was observed for COc1cc2c(oc(=O)c3cc(C)cc(OC)c32)c2c(C3OC(C)C(O)(C(C)=O)C3O)ccc(O)c12 (stereo not drawn) [Mer-1020dA] ?
a: 0.36

====

System: HT29 (colic cancer)
Experiment: Inhibition of growth of human cancer cells (WST-1, 3 days)
Format: cell-based
Conditions: HT-29, 72 h, HT29, 3 days, 37° C., read-out: IC50 value
Reported log10(IC50) values for the following compounds.
Friendly reminder: values = log10 of IC50, unit µg/mL.

• COc1cc2c(oc(=O)c3cc(C)cc(OC)c32)c2cccc(O)c12 [Mer-1020dE] = 1.28
• COc1cc2c(oc(=O)c3cc(C)cc(OC)c32)c2c(C3OC(C)C(=O)C(C)(O)C3O)ccc(O)c12 (stereo not drawn) [Mer-1020dB] = -0.46
• C=Cc1cc(OC)c2c(c1)c(=O)oc1c2cc(OC)c2c(O)ccc(C3OC(C)C(=O)C(C)(O)C3O)c21 (stereo not drawn) [Mer-1020dC] = -1.00
• COc1cc2c(oc(=O)c3cc(C)cc(OC)c32)c2c(C3OC(C)C(O)C(C)(O)C3O)ccc(O)c12 (stereo not drawn) [Chrysomycin B, reference compound] = 0.42
• C=Cc1cc(OC)c2c(c1)c(=O)oc1c2cc(OC)c2c(O)ccc(C3OC(C)C(O)(C(C)=O)C3O)c21 (stereo not drawn) [Mer-1020dD] = -0.82

# next compound below
q: Item: COc1cc2c(oc(=O)c3cc(C)cc(OC)c32)c2c(C3OC(C)C(O)(C(C)=O)C3O)ccc(O)c12 (stereo not drawn) [Mer-1020dA] Test system: HT29 (colic cancer) Read-out: log10(IC50) Value: ?
a: -1.12
